Recorded log10 IC50, one value per entry.
measuredOn: TYK2 (Homo sapiens (Human))
Sequence (P29597 897-1176): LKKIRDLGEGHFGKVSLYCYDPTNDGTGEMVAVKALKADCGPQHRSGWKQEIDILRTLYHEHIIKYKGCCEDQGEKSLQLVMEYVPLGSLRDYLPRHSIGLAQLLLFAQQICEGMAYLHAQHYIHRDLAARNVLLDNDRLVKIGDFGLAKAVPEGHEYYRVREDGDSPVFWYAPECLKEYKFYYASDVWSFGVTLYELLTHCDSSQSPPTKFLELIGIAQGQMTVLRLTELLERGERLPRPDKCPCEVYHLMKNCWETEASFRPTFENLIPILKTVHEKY
testName: JAK Caliper Enzyme Assay at 1 mM ATP, TYK2
Assay type: biochemical
Annotation: log10 of IC50, nM basis.

Known results for molecules:
CS(=O)(=O)N1CC(CC#N)(n2ccc(-c3nc(-c4ccn(C5COC5)n4)cc4ncccc34)n2)C1 [Example 56]
2.35
Cn1cnc2cc(-c3cc4ncccc4c(-c4ccn(C5(CC#N)CN(S(C)(=O)=O)C5)n4)n3)cnc21 [Example 164]
2.37
N#CC[C@]1(n2ncc(-c3cc(-c4ccc(F)cn4)cc4ncccc34)n2)C[C@@H](C#N)C1 [Example 347]
1.41
CCn1cc(-c2cc3ncccc3c(-c3ccn([C@]4(CC#N)C[C@@H](C#N)C4)n3)n2)cn1 [Example 113]
1.34
N#CC[C@]1(n2ncc(-c3cc(-c4cccc(C(=O)O)n4)cc4ncccc34)n2)C[C@@H](C#N)C1 [Example 371]
2.04
CO[C@H]1C[C@@](CC#N)(n2ncc(-c3cc(-c4cc[nH]n4)cc4ncccc34)n2)C1 [Example 304]
1.56
C[C@]1(C#N)C[C@@](CC#N)(n2ncc(-c3cc(-c4cn[nH]c4N)cc4ncccc34)n2)C1 [Example 322]
1.87
CO[C@H]1C[C@](CC#N)(n2ccc(-c3nc(-c4cc(N)[nH]n4)cc4ncccc34)n2)C1 [Example 53]
1.41
N#CC[C@]1(n2ccc(-c3nc(-c4cn[nH]c4)cc4ncccc34)n2)C[C@H](C#N)C1 [Example 77]
1.40
N#CCC1(n2ccc(-c3nc(-c4ccnc(N)c4)cc4ncccc34)n2)CC(C#N)C1 (stereo not drawn) [Example 199]
1.30

Prompt line: So what's the measured log10 IC50 for this one? N#CCC1(n2ccc(-c3nc(-c4ccn(C5COC5)n4)cc4ncccc34)n2)CN(CC(F)(F)F)C1 [Example 57]
Response line: 2.41

Prompt line: So what's the measured log10 IC50 for this one? CS(=O)(=O)c1ccc(-c2cc(-c3cnn([C@]4(CC#N)C[C@H](C#N)C4)n3)c3cccnc3c2)nc1 [Example 368]
Response line: 1.18

Prompt line: So what's the measured log10 IC50 for this one? CS(=O)(=O)N1CC(CC#N)(n2ccc(-c3nc(-c4c[nH]nc4N)cc4ncccc34)n2)C1 [Example 93]
Response line: 0.85

Prompt line: So what's the measured log10 IC50 for this one? N#CCC1(n2ccc(-c3nc(-c4cnn(C5CCNCC5)c4)cc4ncccc34)n2)CN(CC(F)(F)F)C1 [Example 116]
Response line: 1.61

Prompt line: So what's the measured log10 IC50 for this one? CC(=O)Nc1cc(-c2cc3ncccc3c(-c3ccn(C4(CC#N)CN(S(C)(=O)=O)C4)n3)n2)cnc1C [Example 228]
Response line: 2.85

---

measuredOn: UniProt P23458
Sequence (P23458 875-1153): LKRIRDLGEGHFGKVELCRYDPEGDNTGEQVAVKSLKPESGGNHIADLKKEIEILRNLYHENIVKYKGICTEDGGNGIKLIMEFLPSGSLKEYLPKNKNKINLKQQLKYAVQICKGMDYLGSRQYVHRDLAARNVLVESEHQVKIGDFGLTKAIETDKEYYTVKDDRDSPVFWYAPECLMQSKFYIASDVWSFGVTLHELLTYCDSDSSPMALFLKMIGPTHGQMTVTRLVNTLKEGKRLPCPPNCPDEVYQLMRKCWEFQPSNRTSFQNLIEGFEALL
testName: JAK Caliper Enzyme Assay at 1 mM ATP, JAK1
Assay type: biochemical
Method: Compounds of the invention were evaluated by in vitro methods to determine their respective ability to inhibit the JAK kinases (TYK2, JAK1, JAK2, JAK3). The human JAK inhibitory activity was determined by using a microfluidic assay to monitor phosphorylation of a synthetic peptide by the recombinant human kinase domain of each of the four members of the JAK family, JAK1, JAK2, JAK3 and TYK2. […]
Recorded pIC50, one value per entry.
Would you please state pIC50, meaning minus log10 of the concentration in mol/L, as a bare number?

N#CC[C@]1(n2ncc(-c3cc(-c4c[nH]nc4CO)cc4ncccc34)n2)C[C@H](C#N)C1
5.55
Cn1nc(-c2cc3ncccc3c(-c3ccn([C@]4(CC#N)C[C@H](C#N)C4)n3)n2)cc1N
6.81
C=C(CO)n1cc(-c2cc3ncccc3c(-c3ccn(C4(CC#N)CN(S(C)(=O)=O)C4)n3)n2)cn1
5.79
Cc1n[nH]cc1-c1cc2ncccc2c(-c2ccn(C3(CC#N)CN(S(C)(=O)=O)C3)n2)n1
5.79
COc1nc(-c2cc3ncccc3c(-c3ccn([C@]4(CC#N)C[C@H](C#N)C4)n3)n2)ccc1N
6.44

Prompt line: So what's the measured pIC50 for this one? N#CCC1(n2ccc(-c3nc(-c4cn[nH]c4)cc4ncccc34)n2)CC(C#N)C1 (stereo not shown)
Response line: 7.46
